experiment: Solubility in Phosal PG50/Tween-80/water; format: physicochemical
quantity name: solubility (mg/mL)
Numbers only, in mg/mL.

Short answer for CCC(CC)[C@@H](CO)NS(=O)(=O)c1ccc(Cl)s1 : solubility was 6.7

----------
experiment: Metabolic stability in rat microsomes assessed as half life; assay type: ADME, Microsome
quantity name: half-life (min)
Answers are plain numbers, in min.

Recorded results for 2 molecules are shown here.
O=S(=O)(N[C@H](CO)C(C(F)(F)F)C(F)(F)F)c1ccc(Cl)s1 :: 3
O=S(=O)(N[C@H](CO)C(CC(F)(F)F)CC(F)(F)F)c1ccc(Cl)s1 :: 8

Okay, now this molecule:
Short answer for CCC(CC)[C@@H](CO)NS(=O)(=O)c1ccc(Cl)s1 : half-life was 1

Numbers sourced from ChEMBL document CHEMBL1140230.
